System: S. aureus ATCC 25923
experiment.description: MBC by plating tube contents on Mueller-Hinton medium
Format: cell-based
condition.summary: Table 6
Marks after values point to notes of the source that are not given here.
measured.attribute: MBC

These solved cases illustrate the format of a correct answer.
{"columns": ["compound", "MBC"],
 "data": [
  ["O=C([O-])CC(NCCNC(CC(=O)O)C(=O)O)C(=O)[O-].[64Zn+2] (centres unmarked) [^64Zne EDDS]", "0.73* mcg ^64Zne/ml"],
  ["O=C([O-])CC(O)(CC(=O)[O-])C(=O)[O-].O=C([O-])CC(O)(CC(=O)[O-])C(=O)[O-].[Zn+2].[Zn+2].[Zn+2] [^64Zne citrate]", "0.028* mcg ^64Zne/ml"],
  ["NC(CC(=O)[O-])C(=O)[O-].[64Zn+2] (racemic) [^64Zne aspartate]", "0.023* mcg ^64Zne/ml"],
  ["NC(CCC(=O)[O-])C(=O)[O-].[64Zn+2] (centres unmarked) [^64Zne glutamate]", "0.046* mcg ^64Zne/ml"]
]}

Let us examine a further case.
Input: Please look up its MBC: O=S(=O)([O-])[O-].[64Zn+2] [^64Zne sulfate]
Output: 0.37* mcg ^64Zne/ml

----------
Test system: E. coli ATCC 25922
experiment.description: MBC by plating tube contents on Mueller-Hinton medium
Type: cell-based
condition.summary: Table 6
Marks after values point to notes of the source that are not given here.
Give measured MBC for each item. Keep answers brief.

These solved cases illustrate the format of a correct answer.
{"columns": ["molecule", "val"],
 "data": [
  ["O=C([O-])CC(O)(CC(=O)[O-])C(=O)[O-].O=C([O-])CC(O)(CC(=O)[O-])C(=O)[O-].[Zn+2].[Zn+2].[Zn+2] [^64Zne citrate]", "0.44* mcg ^64Zne/ml"],
  ["O=C([O-])CC(NCCNC(CC(=O)O)C(=O)O)C(=O)[O-].[64Zn+2] (centres unmarked) [^64Zne EDDS]", "2.93* mcg ^64Zne/ml"],
  ["NC(CC(=O)[O-])C(=O)[O-].[64Zn+2] (racemic) [^64Zne aspartate]", "0.73* mcg ^64Zne/ml"],
  ["O=S(=O)([O-])[O-].[64Zn+2] [^64Zne sulfate]", "1.46* mcg ^64Zne/ml"]
]}

Input: Please look up its MBC: NC(CCC(=O)[O-])C(=O)[O-].[64Zn+2] (centres unmarked) [^64Zne glutamate]
Output: 0.37* mcg ^64Zne/ml

----------
System: S. aureus ATCC 25923
experiment.description: MIC by serial dilutions in broth (visible growth);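 also: broth tubes inoculated at about 5×10^5 CFU/ml, incubated 16-24 h at 35 °C in air, growth judged by transmitted light against an unexposed refrigerated inoculum tube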
Format: cell-based
condition.summary: ^64Zne 0.023 mcg/ml
measured.attribute: visible growth

{"columns": ["molecule", "val"],
 "data": [
  ["O=S(=O)([O-])[O-].[64Zn+2] [^64Zne sulfate]", "+"],
  ["NC(CCC(=O)[O-])C(=O)[O-].[64Zn+2] (stereo not shown) [^64Zne glutamate]", "+"],
  ["NC(CC(=O)O)C(=O)O (stereo not shown) [^64Zne aspartate]", "−"],
  ["O=C([O-])CC(NCCNC(CC(=O)O)C(=O)O)C(=O)[O-].[64Zn+2] (stereo not shown) [^64Zne EDDS]", "+"]
]}
